# SYSTEM_NAME: NF-kappa-B inhibitor alpha (Homo sapiens) (UniProt P25963)
# Sequence (P25963 whole entry, the tested form may be a part): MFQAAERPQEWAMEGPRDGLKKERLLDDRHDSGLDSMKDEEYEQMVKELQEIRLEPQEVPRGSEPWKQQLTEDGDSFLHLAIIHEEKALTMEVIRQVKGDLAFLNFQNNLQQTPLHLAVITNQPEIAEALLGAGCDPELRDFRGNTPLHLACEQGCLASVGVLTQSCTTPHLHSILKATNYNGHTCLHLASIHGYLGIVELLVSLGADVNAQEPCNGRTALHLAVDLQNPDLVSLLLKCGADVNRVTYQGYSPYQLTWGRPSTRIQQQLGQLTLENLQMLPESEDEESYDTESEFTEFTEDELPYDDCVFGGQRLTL
# TEST_METHOD_NOTES: Induction of human IkappaBalpha stabilization in OCI-Ly3 cells by green light emiting IkappaBalpha-fused luciferase reporter gene assay relative to control
# Assay type: cell-based
OBSERVATION_TYPE: Efficacy (%)
API: value field is a number in %; no unit string.

smiles_input=O=S1(=O)Nc2c(ccc3cccnc23)-c2cc(C(F)(F)F)ccc21 value_unit=% measured_number=32
smiles_input=COc1ccc2c(c1)-c1ccc3ccc(C)nc3c1NS2(=O)=O value_unit=% measured_number=200
smiles_input=COc1cc(NS(=O)(=O)c2ccc(C)cc2N)c2ncccc2c1 value_unit=% measured_number=90
smiles_input=O=S1(=O)Nc2c(ccc3cccnc23)-c2cc(F)ccc21 value_unit=% measured_number=122
smiles_input=Cc1ccc2c(c1)-c1ccc3cccnc3c1NS2(=O)=O value_unit=% measured_number=60

Reported Efficacy for Cc1ccc2cccc(NS(=O)(=O)c3ccccc3[N+](=O)[O-])c2n1 was 200

Reported Efficacy for Cc1ccc2ccc3c(c2n1)NS(=O)(=O)c1ccc(O)cc1-3 was 120

Reported Efficacy for Cc1ccc2ccc3c(c2n1)NS(=O)(=O)c1ccc(C(F)(F)F)cc1-3 was 700

Reported Efficacy for O=S(=O)(Nc1cccc2cccnc12)c1ccccc1 was 350

Reported Efficacy for Cc1ccc2cccc(NS(=O)(=O)c3cccc([N+](=O)[O-])c3)c2n1 was 110

Reported Efficacy for Cc1ccc2cccc(NS(=O)(=O)c3ccc(Cl)s3)c2n1 was 60
